Source: the supplement of paper PMC3334620

assay-target: Cin5 (UniProt P40917)
Sequence: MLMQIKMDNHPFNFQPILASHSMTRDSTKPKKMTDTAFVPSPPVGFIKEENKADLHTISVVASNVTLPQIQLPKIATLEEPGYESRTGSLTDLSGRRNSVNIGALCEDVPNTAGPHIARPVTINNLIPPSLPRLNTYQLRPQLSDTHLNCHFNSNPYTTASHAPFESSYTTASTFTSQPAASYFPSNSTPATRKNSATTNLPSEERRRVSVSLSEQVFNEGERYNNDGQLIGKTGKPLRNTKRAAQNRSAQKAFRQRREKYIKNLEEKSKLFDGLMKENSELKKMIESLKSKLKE
assay-remarks: PBM E-score (8-mer binding enrichment) (E-score (-0.5 to 0.5)); higher = stronger / more preferred TF binding
condition-context: protein concentration: 100 nM; construct: GST-full length
In all, about 33,000 sequences were measured (“E-score (-0.5 to 0.5)”: median about -0.0059, highest 2% from about 0.26 on). What follows is part of a selection rich in the highest values, with near analogues and random picks from the rest.
Quick rule for you: PBM E-score at 0.04 or higher means rule met, lower means rule not met.

| seq-text | assay-target | discrete-label |
| --- | --- | --- |
| AAACAGCA | Cin5 (UniProt P40917) | rule met |
| ACGATTAA | Cin5 (UniProt P40917) | rule not met |
| GGTTCCCA | Cin5 (UniProt P40917) | rule not met |
| AATAAATT | Cin5 (UniProt P40917) | rule met |
| AAATATAC | Cin5 (UniProt P40917) | rule met |
| ATATCGAT | Cin5 (UniProt P40917) | rule met |

Determine whether this sequence has PBM E-score no lower than 0.04: `AACTATAG`
rule met

Entry `AGTATTAC` please
rule met

Entry `AGGCTGAC` please
rule met

Entry `TACTGCCA` please
rule met

Entry `GCGATTAC` please
rule met

Entry `GCATTAAA` please
rule met
